# Protocol Description: Log D (pH 7.4) measurement, n-octanol/buffer
# Conditions: n-octanol/pH 7.4 buffer
Readout Name: logD

Compound	Result
CC(C)c1nc(CN(C)C(=O)N[C@H](C(=O)N[C@@H](Cc2ccccc2)C[C@H](O)[C@H](Cc2ccccc2)NC(=O)OCc2cncs2)C(C)C)cs1 [Ritonavir]	4.29
CC(=O)O[C@H]1C(=O)[C@@]2(C)[C@H]([C@H](OC(=O)c3ccccc3)[C@]3(O)C[C@H](OC(=O)[C@H](O)[C@@H](NC(=O)c4ccccc4)c4ccccc4)C(C)=C1C3(C)C)[C@]1(OC(C)=O)CO[C@@H]1C[C@@H]2O [Paclitaxel]	3.36
C=CC[C@@H]1/C=C(\C)C[C@H](C)C[C@H](OC)[C@H]2O[C@@](O)(C(=O)C(=O)N3CCCC[C@H]3C(=O)O[C@H](/C(C)=C/[C@@H]3CC[C@@H](O)[C@H](OC)C3)[C@H](C)[C@@H](O)CC1=O)[C@H](C)C[C@@H]2OC [Tacrolimus]	4.19
